Assay Procedure: chemical genetic growth profiling, strain panel (AID 1159580);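 note: tested at 20 µM; growth read once vehicle control cultures reached saturation at 30 °C; 1 = growth at the plate median or of vehicle wells; lower values mean less growth of the strain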
Settings: S. cerevisiae deletion strains, growth OD, locus YGR078C, strain PAC10
Among all 5,500 compounds or so, about 2,000 (36%) were called active. About 18% were inconclusive and are not listed. Cut-off read from the data, not from the text of the source: active = normalized growth mostly below about 0.91 (no sharp cut-off); inconclusive = no clear call, values can overlap the other calls; inactive = mostly above about 0.92. Some of the results follow.
Classes used: label 1 for active, label 0 for inactive

| Compound | Discrete Label |
| --- | --- |
| O=C(COc1ccc(Cl)cc1)N1CCN(Cc2ccc3c(c2)OCO3)CC1 | label 0 |
| C[C@@H](N)Cc1cnc[nH]1 | label 0 |
| COc1ccc(-c2n[nH]c(=S)n2-c2cccc(OC)c2)cc1 | label 0 |
| CC(=O)/C=C\[C@@H]1[C@@]2(C)CCCC(C)(C)C2CC[C@@]1(C)O (stereo partly drawn) | label 0 |
| O=C(CSCc1c(F)cccc1Cl)Nc1ccc(F)c(Cl)c1 | label 1 |
| Cc1cc(=O)n2[nH]cc(C#N)c2n1 | label 0 |
| O=C(O)/C=C/C(=O)Nc1ccc(-n2nc(C(F)(F)F)cc2C(F)(F)F)cc1 | label 0 |
| O=C(NC1Cc2ccccc2C1)c1cncc(Br)c1 | label 0 |
| C/C=C(/C)C(=O)O[C@H]1CC[C@@]2(C)[C@@H]3CC[C@H]4[C@]5(O)C[C@H](O)[C@@]6(O)[C@@H](CN7C[C@@H](C)CC[C@H]7[C@@]6(C)O)[C@]5(O)C[C@@]42O[C@]13O | label 0 |
| O=C1C(O)=C(O)C(=O)C(O)=C1O | label 0 |
| O=C(N/N=C\c1c(O)ccc2ccccc12)N/N=C\c1c(O)ccc2ccccc12 | label 0 |
| CC(C)(C)c1ccc(-c2n[nH]c(=S)n2-c2cccc(C(F)(F)F)c2)cc1 | label 0 |
| COc1ccc2[nH]cc(CCN)c2c1 | label 0 |
| O=[N+]([O-])c1cnc(Sc2n[nH]c(-c3cccs3)n2)s1 | label 1 |
| O=C(CSCc1c(F)cccc1Cl)NC1Cc2ccccc2C1 | label 0 |
| CCOC(=O)c1sc(-c2ccc(C)cc2)nc1O | label 1 |
| S=C(NCc1cccnc1)Nc1ccccc1Cl | label 0 |
| Cc1ccc(-c2cc(C(F)(F)F)nn2-c2ccc(S(N)(=O)=O)cc2)cc1 | label 0 |
| Nc1ccccc1C(=O)N/N=C\c1cccc2ccccc12 | label 0 |
| O=C(Nc1ccc(Cl)c(Cl)c1)c1ccccc1 | label 1 |
| Nc1ccccc1C(=O)CC(N)C(=O)O (stereo not drawn) | label 0 |
| O=[N+]([O-])c1ccccc1SCc1n[nH]c(=S)n1-c1cccc(C(F)(F)F)c1 | label 0 |
| S=C(NCc1ccccc1)Nc1ccc(Cl)c(Cl)c1 | label 1 |
